The values you see were collected from patent EP1157002B1.

assayed-target: human serotonin transporter (hSERT) (Homo sapiens, UniProt P31645)
Construct: expressed in transfected cells; host or cells: HEK-293 (human embryonic kidney cells), stably transfected
Sequence (P31645 whole entry): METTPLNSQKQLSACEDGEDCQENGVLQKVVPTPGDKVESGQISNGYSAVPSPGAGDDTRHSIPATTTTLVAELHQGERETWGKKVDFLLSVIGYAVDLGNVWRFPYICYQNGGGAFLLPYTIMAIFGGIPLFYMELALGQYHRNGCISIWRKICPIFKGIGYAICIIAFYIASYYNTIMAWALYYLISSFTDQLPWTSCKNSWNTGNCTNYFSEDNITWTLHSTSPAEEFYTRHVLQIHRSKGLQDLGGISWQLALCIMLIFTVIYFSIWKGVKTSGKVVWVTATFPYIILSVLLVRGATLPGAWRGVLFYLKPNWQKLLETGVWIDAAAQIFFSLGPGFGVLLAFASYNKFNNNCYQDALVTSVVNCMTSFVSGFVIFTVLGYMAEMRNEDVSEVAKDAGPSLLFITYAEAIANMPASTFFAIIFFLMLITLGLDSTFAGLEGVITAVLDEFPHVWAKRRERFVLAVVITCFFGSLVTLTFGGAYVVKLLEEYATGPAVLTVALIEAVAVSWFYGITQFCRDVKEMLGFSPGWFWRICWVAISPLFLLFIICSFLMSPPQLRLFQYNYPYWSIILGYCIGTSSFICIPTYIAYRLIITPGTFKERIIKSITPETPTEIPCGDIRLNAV
test-details: Test A: uptake of 3H-serotonin into human embryonic kidney cells (HEK-293) expressing the human serotonin transporter
Type: cell-based
condition-description: inhibition of the up-take of serotonin by human serotonin transporters; HEK-293 hSERT cells, 3H-5HT (50nM), incubation 5 minutes, room temperature; read-out: IC50 value
pIC50: −log10 of the molar value. Structures can show the parent of a compound that is named as a salt.
# pIC50 annotations
property-measured: pIC50

INSERT INTO assay_data (compound, result) VALUES
  ('CN[C@H]1CC[C@@H](c2ccc(Cl)c(Cl)c2)c2ccc(-c3ncnn3C)cc21 [Example 56, hydrochloride]', '≥ 7.00'),
  ('CN[C@H]1CC[C@@H](c2ccc(Cl)c(Cl)c2)c2ccc(CNC(N)=O)cc21 [Example 37, hydrochloride]', '≥ 7.00'),
  ('CN[C@H]1CC[C@@H](c2ccc(Cl)c(Cl)c2)c2ccc(-c3ncn[nH]3)cc21 [Example 55, hydrochloride]', '≥ 7.00');
